# TGT: T1, Anti-CD28 scFv (VH-linker 1-VL) (biotinylated (site not stated))
# T1 construct: biotinylated and captured on neutravidin coated plates in the phage ELISA
# EXPERIMENT: phage ELISA, scFv wells pre-incubated with soluble CD28 (competitor); background signal 0.078
EXPERIMENTAL READOUT: Phage binding ELISA CD28 scFv signal in presence of CD28
Answer with a bare number; do not write a unit.

Q. Bench note: what Phage binding ELISA CD28 scFv signal in presence of CD28 did MDWCPRDLWDLCFA [Phage-25] show?
A. 0.219

Q. Consider next the binder MDWCPRPLWHECFS [Phage-45] in the same way.
A. 0.121

Q. Also MDWCPIHLWHYCFN [Phage-88] , if possible.
A. 0.453

Q. Thanks! And MDWCPKDLWDYCFA [Phage-97] ?
A. 0.165
